The measured values listed here are drawn from patent US20220112288A1.

Reported SKW3 WT vs KO anti-mFc-647 values are given for each entry in this list.
- target.under.test: T1, human CD4 on the surface of SKW3 cells or human PBMCs (human, UniProt P01730 26-458)
- T1 construct: whole, on cells; SKW3 CD4 knockout cells served as the negative cell line; also called hCD4; SKW3 WT
- run.description: FACS primary screen, non-clonal hybridoma supernatant, SKW3 vs SKW3 CD4 KO cells, anti-mouse Fc A647
Supply the numeric figure in ratio, leaving out any unit text.

{"binder": "75110_04K10A (antibody, V domains shown, Tested here as non-clonal hybridoma supernatant from AlivaMab Mouse Kappa mice (detected with anti-mouse Fc and anti-human kappa)) VH: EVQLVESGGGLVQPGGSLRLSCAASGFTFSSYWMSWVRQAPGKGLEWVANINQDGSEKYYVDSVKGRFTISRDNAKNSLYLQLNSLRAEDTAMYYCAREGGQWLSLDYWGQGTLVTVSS VL: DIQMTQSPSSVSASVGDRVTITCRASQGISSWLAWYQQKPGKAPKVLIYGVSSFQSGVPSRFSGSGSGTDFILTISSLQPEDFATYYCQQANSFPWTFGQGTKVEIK", "SKW3 WT vs KO anti-mFc-647 (ratio)": 5}

Task: Which value of SKW3 WT vs KO anti-mFc-647 has been reported for 75110_07H07A (antibody, V domains shown, Tested here as non-clonal hybridoma supernatant from AlivaMab Mouse Kappa mice (detected with anti-mouse Fc and anti-human kappa)) VH: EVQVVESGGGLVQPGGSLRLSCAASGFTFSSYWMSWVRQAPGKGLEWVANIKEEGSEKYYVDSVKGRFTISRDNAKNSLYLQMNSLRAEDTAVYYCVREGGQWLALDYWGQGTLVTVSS VL: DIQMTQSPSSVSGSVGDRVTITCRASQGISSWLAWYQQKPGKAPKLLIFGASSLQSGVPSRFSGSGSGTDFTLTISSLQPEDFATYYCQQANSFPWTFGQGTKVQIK in the records?
Output: 5.7
